experimental_details: growth inhibition of RCMB18 medulloblastoma cells, cell-based, cisplatin and BGB IC40 combos (AID 1671462);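 further: cells exposed to compound for four days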
details: single agent, at 5 µM, stronger effect = higher value
Parameter threshold = -10%. Response is 1 when inhibition meets or exceeds it, else -1.

>>> label("N=C(N=C(N)N)N1CCOCC1")
-1
>>> label("CN(N=O)C(=O)NC1C(O)OC(CO)C(O)C1O (configuration not stated)")
1
>>> label("CN1CCN(c2c(F)cc3c(=O)c(C(=O)O)cn(CCF)c3c2F)CC1")
1
>>> label("O=c1[nH]c(=O)n([C@H]2C[C@H](O)[C@@H](CO)O2)cc1C(F)(F)F")
-1
>>> label("O=c1[nH]c(=O)n([C@H]2C[C@H](O)[C@@H](CO)O2)cc1Br")
-1

* * *

experimental_details: stimulators of insulin release from INS-1E, primary screen, cell-based, 5 mM glucose, NPC library (AID 1117329); further: reference of the scale not given here
details: rat INS-1E insulin secretion, at 10 µM, stronger effect = higher value
quantity_measured: insulin secretion stimulation (%)

>>> endpoint_value("O=C(O)CN(CC(=O)O)Cc1cc2c(-c3ccccc3C(=O)O)c3cc(CN(CC(=O)O)CC(=O)O)c(=O)cc-3oc2cc1O")
-0.4
>>> endpoint_value("CS(=O)(=O)CCNCc1ccc(-c2ccc3ncnc(Nc4ccc(OCc5cccc(F)c5)c(Cl)c4)c3c2)o1")
1.35
>>> endpoint_value("O=[N+]([O-])c1cccc(S(=O)(=O)NCCNS(=O)(=O)c2cccc([N+](=O)[O-])c2)c1")
-0.55
>>> endpoint_value("Cc1ncc(CO)c(CO)c1O")
-1.8
>>> endpoint_value("CC[N+](C)(CC)CCOC(=O)C1c2ccccc2Oc2ccccc21")
2.6
>>> endpoint_value("COC(=O)[C@@H]1CC2=CC(=O)CC[C@]2(C)[C@@]23O[C@@H]2C[C@@]2(C)[C@@H](CC[C@@]24CCC(=O)O4)[C@H]13")
-0.55
>>> endpoint_value("CCC(C)(Oc1ccc(C2(c3ccc(OC(C)(CC)C(=O)O)cc3)CCCCC2)cc1)C(=O)O (stereo unspecified)")
1.2
>>> endpoint_value("CCOc1ccccc1OCC1CNCCO1 (stereo unspecified)")
1.75
>>> endpoint_value("COC(=O)C1=C(C)NC(C)=C(C(=O)OCCN(C)Cc2ccccc2)C1c1cccc([N+](=O)[O-])c1 (stereo unspecified)")
2.9
>>> endpoint_value("CCN[C@H]1C[C@H](C)S(=O)(=O)c2sc(S(N)(=O)=O)cc21")
2.65
>>> endpoint_value("Cc1c(O)cc2c(c1C)O[C@](C)(CCC[C@H](C)CCC[C@H](C)CCCC(C)C)CC2")
0.7
>>> endpoint_value("CN(Cc1ccc(C(C)(C)C)cc1)Cc1cccc2ccccc12")
-1
>>> endpoint_value("NCCCNCCSP(=O)(O)O")
3
>>> endpoint_value("CCOC(=O)[C@H](CCc1ccccc1)N[C@@H](C)C(=O)N1Cc2cc(OC)c(OC)cc2C[C@H]1C(=O)O")
0.3
>>> endpoint_value("O=c1[nH]c(=O)n([C@H]2C[C@H](O)[C@@H](CO)O2)cc1Br")
0.6
>>> endpoint_value("Cc1ncc(CSSCc2cnc(C)c(O)c2CO)c(CO)c1O")
1.7
>>> endpoint_value("C[C@@H](NCCCc1cccc(C(F)(F)F)c1)c1cccc2ccccc12")
0.2
>>> endpoint_value("CN1CCCN(C(c2ccccc2)c2ccc(Cl)cc2)CC1 (stereo unspecified)")
2.9
>>> endpoint_value("CN(C)[C@@H](CCOc1cccc2ccccc12)c1ccccc1")
9.9
>>> endpoint_value("O=C(NCC1CCCCN1)c1cc(OCC(F)(F)F)ccc1OCC(F)(F)F (stereo unspecified)")
3.7
>>> endpoint_value("COc1ccc(CCN(C)CCCN2CCc3cc(OC)c(OC)cc3CC2=O)cc1OC")
10.7
